Overview of reported koff across a group of binders:
Target: T1, human TIGIT ECD-his (fusion protein of extracellular domain of human TIGIT and His-tag) (human)
T1 construct: entry includes the signal peptide, limits not readable here
T1 chain: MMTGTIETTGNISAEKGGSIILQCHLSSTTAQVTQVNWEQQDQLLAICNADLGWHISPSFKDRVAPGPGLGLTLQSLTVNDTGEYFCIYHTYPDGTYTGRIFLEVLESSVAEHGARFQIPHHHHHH
Experiment: BIAcore kinetics
Quick note: unit goes after the number.

BINDER: TIGIT-CHI-006 (antibody, V domains shown, human-mouse chimeric antibody) VH: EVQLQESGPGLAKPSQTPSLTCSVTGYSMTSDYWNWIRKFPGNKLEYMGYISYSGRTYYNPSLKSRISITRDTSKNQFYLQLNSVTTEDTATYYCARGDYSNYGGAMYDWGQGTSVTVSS VL: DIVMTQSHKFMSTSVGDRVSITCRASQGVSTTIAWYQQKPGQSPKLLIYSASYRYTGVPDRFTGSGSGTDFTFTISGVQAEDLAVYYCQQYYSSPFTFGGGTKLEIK
koff: 0.00017 s⁻¹

Value lookup for koff; key = TIGIT-CHI-070 (antibody, V domains shown, human-mouse chimeric antibody) VH: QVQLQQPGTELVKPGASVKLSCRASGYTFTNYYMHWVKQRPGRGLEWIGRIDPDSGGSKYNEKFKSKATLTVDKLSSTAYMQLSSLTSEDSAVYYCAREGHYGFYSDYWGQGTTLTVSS VL: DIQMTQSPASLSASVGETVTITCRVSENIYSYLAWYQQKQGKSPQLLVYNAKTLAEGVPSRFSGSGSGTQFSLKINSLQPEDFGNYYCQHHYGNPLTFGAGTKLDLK
0.000456 s⁻¹

Cool, now TIGIT-CHI-002 (antibody, V domains shown, human-mouse chimeric antibody) VH: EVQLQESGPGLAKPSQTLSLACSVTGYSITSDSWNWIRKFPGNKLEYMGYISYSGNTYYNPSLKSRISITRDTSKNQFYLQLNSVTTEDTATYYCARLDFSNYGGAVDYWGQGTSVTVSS VL: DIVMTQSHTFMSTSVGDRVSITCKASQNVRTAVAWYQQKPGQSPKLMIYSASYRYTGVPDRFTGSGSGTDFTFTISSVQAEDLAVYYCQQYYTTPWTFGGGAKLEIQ
0.000315 s⁻¹

Cool, now TIGIT-CHI-005 (antibody, V domains shown, human-mouse chimeric antibody) VH: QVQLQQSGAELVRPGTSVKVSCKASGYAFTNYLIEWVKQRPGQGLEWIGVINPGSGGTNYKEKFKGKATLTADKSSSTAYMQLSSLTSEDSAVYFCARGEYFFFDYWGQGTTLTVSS VL: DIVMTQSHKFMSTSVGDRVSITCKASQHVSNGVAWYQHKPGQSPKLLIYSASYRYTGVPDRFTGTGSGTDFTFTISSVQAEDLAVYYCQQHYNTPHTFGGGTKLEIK
0.000192 s⁻¹
